assay: Differential scanning calorimetry for thermal stability; settings: DSC, measure of thermal stability
Measured Melting temperature, Tm accompanies every entry in the list below.

Inquiry: Fill in: Melting temperature, Tm of CCCCCCCCCCCCCCCCCC(=O)OCC(COP(=O)(O)OCC(O)CO)OC(=O)CCCCCCCCCCCCCCCCC (stereo not shown) [DSPG] is ___
Reply text: ~40° ° C.

Inquiry: Fill in: Melting temperature, Tm of CCCCCCCC/C=C\CCCCCCCC(=O)OC[C@H](COP(=O)(O)OCCN)OC(=O)CCCCCCC/C=C\CCCCCCCC [DOPE] is ___
Reply text: ~63° ° C.

Inquiry: Fill in: Melting temperature, Tm of CCCCCCCCCCCCCC(=O)OC[C@H](COP(=O)([O-])OCC[N+](C)(C)C)OC(=O)CCCCCCCCCCCCC [DMPC] is ___
Reply text: ~42° ° C.

Inquiry: Fill in: Melting temperature, Tm of CC(C)CCC[C@@H](C)[C@H]1CC[C@H]2[C@@H]3CC=C4C[C@@H](O)CC[C@]4(C)[C@H]3CC[C@]12C [Cholesterol] is ___
Reply text: ~154° ° C.
